# Test system: HT-29
# Protocol description: Cytotoxicity against human HT-29 cells after 72 hrs by MTT assay
# Assay type: functional, cell-based
# Conditions: HT-29, 72 h
Observation type: log10 IC50 (log10 of the value in µM)
Units before log transform: µM; reported quantity: IC50; transform: log10.

Prompt: Hi! What's the reported log10 IC50 for CN(C)CCn1cnnc1-c1cc(Oc2ccc(NC(=O)N/N=C/c3ccc(F)cc3Cl)cc2F)ccn1 on HT-29?
Response: -0.29

* * *

The reader will find reported IC50 values listed item by item below.
# System: A549
# Protocol description: Cytotoxicity against human A549 cells after 72 hrs by MTT assay
# Type: functional, cell-based
# Conditions: A549, 72 h
Give just the numeric value; nM need not be written.

The cases that follow already have their IC50 on record.
CN(C)CCn1cnnc1-c1cc(Oc2ccc(NC(=O)N/N=C/c3ccc(O)c(Br)c3)cc2F)ccn1: 1370
CNC(=O)c1cc(Oc2ccc(NC(=O)Nc3ccc(Cl)c(C(F)(F)F)c3)cc2)ccn1: 1920
CN(C)CCn1cnnc1-c1cc(Oc2ccc(NC(=O)N/N=C/c3ccc(F)cc3Cl)cc2F)ccn1: 1120

Prompt: I have this molecule here, COc1ccc(/C=N/NC(=O)Nc2ccc(Oc3ccnc(-c4nncn4CCN(C)C)c3)c(F)c2)c(OC)c1OC , and I need its recorded IC50.
Response: 6680

Prompt: Consider next the molecule CN(C)CCn1cnnc1-c1cc(Oc2ccc(NC(=O)N/N=C/c3c(O)ccc4ccccc34)cc2F)ccn1 in the same way.
Response: 880

* * *

# System: A549
# Protocol description: Cytotoxicity against human A549 cells after 72 hrs by MTT assay
# Assay type: functional, cell-based
# Conditions: A549, 72 h
Observation type: pIC50
In simple prose, pIC50 is minus the logarithm base ten of a concentration in moles per litre.

These recorded examples may help you get a feel for the data.
CN(C)CCn1cnnc1-c1cc(Oc2ccc(NC(=O)N/N=C/c3c[nH]c4ccccc34)cc2F)ccn1: 6.09
CN(C)CCn1cnnc1-c1cc(Oc2ccc(NC(=O)N/N=C/c3ccc(O)cc3O)cc2F)ccn1: 4.90
CN(C)CCn1cnnc1-c1cc(Oc2ccc(NC(=O)N/N=C/c3ccc(O)c(F)c3)cc2F)ccn1: 4.87

Prompt: Give pIC50 (A549) of the following compound: CN(C)CCn1cnnc1-c1cc(Oc2ccc(NC(=O)N/N=C/c3cc(C(C)(C)C)cc(C(C)(C)C)c3O)cc2F)ccn1
Response: 6.01

Prompt: Ok, now CN(C)CCn1cnnc1-c1cc(Oc2ccc(NC(=O)N/N=C/c3ccc(Cl)cc3)cc2F)ccn1
Response: 6.11

Prompt: Now the compound CN(C)CCn1cnnc1-c1cc(Oc2ccc(NC(=O)N/N=C/c3ccc(O)cc3)cc2F)ccn1
Response: 5.45

* * *

Reported pIC50 values follow for various compounds
# System: HT-29
# Protocol description: Cytotoxicity against human HT-29 cells after 72 hrs by MTT assay
# Assay type: functional, cell-based
# Conditions: HT-29, 72 h
Lab note: report pIC50 as minus log10 of the concentration in molar units, number only.

# count of solved cases: 3
CN(C)CCn1cnnc1-c1cc(Oc2ccc(NC(=O)N/N=C/c3ccc(O)c(O)c3)cc2F)ccn1: 5.72
CN(C)CCn1cnnc1-c1cc(Oc2ccc(NC(=O)N/N=C/c3cccc(Br)c3)cc2F)ccn1: 6.42
CN(C)CCn1cnnc1-c1cc(Oc2ccc(NC(=O)N/N=C/c3ccc(F)cc3)cc2F)ccn1: 5.86

Read the next record carefully.
Prompt: Item under review: CN(C)CCn1cnnc1-c1cc(Oc2ccc(NC(=O)N/N=C/c3ccc(O)c(F)c3)cc2F)ccn1 . Reported pIC50?
Response: 5.48
